- tgt: T1, Danio rerio (Dr) Fcho1 μHD (Danio rerio (zebrafish))
- T1 chain: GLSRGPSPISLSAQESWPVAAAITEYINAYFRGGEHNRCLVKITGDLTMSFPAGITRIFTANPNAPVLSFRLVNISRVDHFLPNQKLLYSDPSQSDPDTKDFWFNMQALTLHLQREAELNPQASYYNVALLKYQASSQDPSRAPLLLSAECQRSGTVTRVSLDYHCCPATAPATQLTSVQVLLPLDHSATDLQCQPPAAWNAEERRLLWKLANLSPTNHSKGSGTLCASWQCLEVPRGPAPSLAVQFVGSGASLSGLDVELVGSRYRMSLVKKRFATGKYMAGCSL
- test-details: ITC
endpoint: Kd (µM)

1) NLDFFQSDPFVGSDPFKDDPFGK [EPS15 616–638 peptide] | 8.1
